# target_or_system: KDR (VEGFR2) (Homo sapiens, UniProt P35968)
# Construct: purchased Invitrogen
# Sequence (P35968 20-1356): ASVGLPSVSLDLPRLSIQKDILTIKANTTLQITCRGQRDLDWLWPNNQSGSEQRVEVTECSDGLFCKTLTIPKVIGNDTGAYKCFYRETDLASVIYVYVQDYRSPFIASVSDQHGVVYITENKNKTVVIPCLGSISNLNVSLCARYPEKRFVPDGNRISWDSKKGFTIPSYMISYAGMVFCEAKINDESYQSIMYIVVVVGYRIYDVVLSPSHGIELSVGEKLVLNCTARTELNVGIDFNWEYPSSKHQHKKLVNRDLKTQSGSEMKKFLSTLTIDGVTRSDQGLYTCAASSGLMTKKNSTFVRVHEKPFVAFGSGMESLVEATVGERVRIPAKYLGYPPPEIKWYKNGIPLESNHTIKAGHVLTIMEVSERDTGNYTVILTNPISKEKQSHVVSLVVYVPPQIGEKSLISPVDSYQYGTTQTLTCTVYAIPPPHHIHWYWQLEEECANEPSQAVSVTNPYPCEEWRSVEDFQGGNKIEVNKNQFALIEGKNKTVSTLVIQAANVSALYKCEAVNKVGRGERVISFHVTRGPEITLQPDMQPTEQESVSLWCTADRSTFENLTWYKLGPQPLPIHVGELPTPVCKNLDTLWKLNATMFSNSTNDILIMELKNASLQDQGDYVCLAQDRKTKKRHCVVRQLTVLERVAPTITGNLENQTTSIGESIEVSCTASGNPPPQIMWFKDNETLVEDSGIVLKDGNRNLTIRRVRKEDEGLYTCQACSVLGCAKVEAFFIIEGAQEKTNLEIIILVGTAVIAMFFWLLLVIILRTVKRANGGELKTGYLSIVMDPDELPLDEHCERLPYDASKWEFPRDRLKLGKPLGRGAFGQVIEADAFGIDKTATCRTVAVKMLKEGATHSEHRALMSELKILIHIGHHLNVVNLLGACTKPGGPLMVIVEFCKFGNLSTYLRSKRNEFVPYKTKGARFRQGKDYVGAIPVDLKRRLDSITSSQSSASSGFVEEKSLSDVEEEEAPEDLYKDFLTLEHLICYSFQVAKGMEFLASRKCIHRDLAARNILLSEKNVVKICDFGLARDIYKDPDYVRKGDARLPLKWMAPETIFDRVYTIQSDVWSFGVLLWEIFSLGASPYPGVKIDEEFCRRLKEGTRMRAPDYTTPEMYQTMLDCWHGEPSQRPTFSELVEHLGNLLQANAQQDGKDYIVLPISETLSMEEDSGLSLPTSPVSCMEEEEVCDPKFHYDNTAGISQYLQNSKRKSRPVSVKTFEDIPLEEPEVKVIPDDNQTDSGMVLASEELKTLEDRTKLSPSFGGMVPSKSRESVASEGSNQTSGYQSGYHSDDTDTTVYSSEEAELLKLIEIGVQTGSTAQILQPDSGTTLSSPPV
# experiment_description: Z′-LYTE kinase inhibition assay against KDR (Invitrogen)
# Format: biochemical
# condition_description: 1 μM compound, Z′-LYTE method
The reader will find reported inhibition at 1 µM values listed item by item below.

Use the examples below as a reference point.
O=C(Nc1ccc(F)c(C(=O)c2ccc3nccnc3c2)c1F)c1cccc(C(F)(F)F)c1 = > 70%
O=C(Nc1ccc(Cl)c(C(F)(F)F)c1)Nc1ccc(F)c(C(=O)c2ccc3nccnc3c2)c1F = < 70%

-- ask Identify the measured inhibition at 1 µM of "O=C(Nc1cccc(C(F)(F)F)c1)Nc1ccc(F)c(C(=O)c2ccc3nccnc3c2)c1F" for KDR (VEGFR2) (Homo sapiens, UniProt P35968).
-- reply < 70%

-- ask Similarly, "O=C(Nc1cccc(F)c1)Nc1ccc(F)c(C(=O)c2ccc3nccnc3c2)c1F" ?
-- reply < 70%

---

# target_or_system: BRAF V600E (Homo sapiens, UniProt P15056, V600E)
# Construct: purchased Invitrogen
# Sequence (P15056 whole entry V600E): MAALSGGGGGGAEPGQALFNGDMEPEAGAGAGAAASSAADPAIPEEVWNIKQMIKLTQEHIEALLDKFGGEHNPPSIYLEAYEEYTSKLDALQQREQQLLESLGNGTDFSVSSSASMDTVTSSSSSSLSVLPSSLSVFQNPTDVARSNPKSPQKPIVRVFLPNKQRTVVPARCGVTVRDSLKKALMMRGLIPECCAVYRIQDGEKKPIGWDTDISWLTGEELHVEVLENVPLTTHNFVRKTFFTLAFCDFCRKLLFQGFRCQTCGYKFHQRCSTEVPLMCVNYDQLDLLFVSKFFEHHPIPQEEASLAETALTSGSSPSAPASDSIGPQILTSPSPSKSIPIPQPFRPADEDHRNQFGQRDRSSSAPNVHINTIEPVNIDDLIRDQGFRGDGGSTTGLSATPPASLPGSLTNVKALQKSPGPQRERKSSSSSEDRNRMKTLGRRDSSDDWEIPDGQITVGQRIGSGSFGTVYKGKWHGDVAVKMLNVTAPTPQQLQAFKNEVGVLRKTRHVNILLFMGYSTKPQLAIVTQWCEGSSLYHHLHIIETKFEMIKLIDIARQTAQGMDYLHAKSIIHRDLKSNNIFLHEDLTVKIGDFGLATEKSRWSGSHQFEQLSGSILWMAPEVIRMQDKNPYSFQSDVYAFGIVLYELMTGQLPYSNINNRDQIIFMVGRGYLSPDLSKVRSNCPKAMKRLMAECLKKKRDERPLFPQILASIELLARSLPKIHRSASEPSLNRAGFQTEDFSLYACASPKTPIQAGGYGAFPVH
# experiment_description: Z′-LYTE kinase inhibition assay against BRAF V600E (Invitrogen)
# Format: biochemical
# condition_description: 1 μM compound, Z′-LYTE method
measurement_name: inhibition at 1 µM

-- ask Can you look up the measured inhibition at 1 µM of "CCCS(=O)(=O)Nc1ccc(F)c(C(=O)c2ccc3ncc(OC)nc3c2)c1F" for me?
-- reply > 89%

---

# Tested on: A549 cells
# experiment_description: Inhibition of cancer cell growth, MTT assay, A549 cells
# Format: cell-based
# condition_description: Homo sapiens, 72 h compound exposure
measurement_name: IC50

Use the examples below as a reference point.
O=C(Nc1cccc(F)c1)Nc1ccc(F)c(C(=O)c2ccc3nccnc3c2)c1F [Compound C07] = 1 to 5 µM
CCCS(=O)(=O)Nc1ccc(F)c(C(=O)c2ccc3ncc(-c4ccc(Cl)cc4)nc3c2)c1F [Compound C02] = < 1 µM
CCCS(=O)(=O)Nc1ccc(F)c(C(=O)c2ccc3ncc(C#N)nc3c2)c1F [Compound C04] = < 1 µM
O=C(Nc1ccc(Cl)c(C(F)(F)F)c1)Nc1ccc(F)c(C(=O)c2ccc3nccnc3c2)c1F [Compound C08] = > 5 µM
O=C(Nc1ccc(F)c(C(=O)c2ccc3nccnc3c2)c1F)c1cccc(F)c1 [Compound C09] = > 5 µM
CCCS(=O)(=O)Nc1ccc(F)c(C(=O)c2ccc3nccnc3c2)c1F [Compound C01] = < 1 µM
CCCS(=O)(=O)Nc1ccc(F)c(C(=O)c2ccc3ncc(OC)nc3c2)c1F [Compound C03] = 1 to 5 µM
O=C(Nc1ccc(F)c(C(=O)c2ccc3nccnc3c2)c1F)c1cccc(C(F)(F)F)c1 [Compound C10] = > 5 µM

Attention now turns to another entry.
-- ask Can you look up the measured IC50 of O=C(Nc1cccc(C(F)(F)F)c1)Nc1ccc(F)c(C(=O)c2ccc3nccnc3c2)c1F [Compound C06] for me?
-- reply > 5 µM

---

# target_or_system: BRAF V600E (Homo sapiens, UniProt P15056, V600E)
# Construct: purchased Invitrogen
# experiment_description: Z′-LYTE kinase inhibition assay against BRAF V600E (Invitrogen)
# Type: biochemical
# condition_description: 1 μM compound, Z′-LYTE method
The reader will find reported inhibition at 1 µM values listed item by item below.

-- ask Can you look up the measured inhibition at 1 µM of "O=C(Nc1cccc(F)c1)Nc1ccc(F)c(C(=O)c2ccc3nccnc3c2)c1F" for me?
-- reply 70 to 89%

-- ask Similarly, "CCCS(=O)(=O)Nc1ccc(F)c(C(=O)c2ccc3ncc(-c4ccc(Cl)cc4)nc3c2)c1F" ?
-- reply > 89%

-- ask Similarly, "O=C(Nc1ccc(Cl)c(C(F)(F)F)c1)Nc1ccc(F)c(C(=O)c2ccc3nccnc3c2)c1F" ?
-- reply < 70%

-- ask Similarly, "CCCS(=O)(=O)Nc1ccc(F)c(C(=O)c2ccc3nccnc3c2)c1F" ?
-- reply > 89%

-- ask Similarly, "O=C(Nc1ccc(F)c(C(=O)c2ccc3nccnc3c2)c1F)c1cccc(F)c1" ?
-- reply 70 to 89%

-- ask Similarly, "O=C(Nc1ccc(F)c(C(=O)c2ccc3nccnc3c2)c1F)c1cccc(C(F)(F)F)c1" ?
-- reply 70 to 89%

-- ask Similarly, "CCCS(=O)(=O)Nc1ccc(F)c(C(=O)c2ccc3ncc(C#N)nc3c2)c1F" ?
-- reply > 89%

-- ask Similarly, "O=C(Nc1cccc(C(F)(F)F)c1)Nc1ccc(F)c(C(=O)c2ccc3nccnc3c2)c1F" ?
-- reply 70 to 89%
